Numbers sourced from PubChem BioAssay.

tested_system: Dual specificity protein phosphatase 6 (Homo sapiens)
assay_comment: DUSP6 inhibitors restoring Erk phosphorylation by chemical complementation, primary imaging in DUSP6-transfected HeLa (AID 609);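 further: phospho-Erk level distribution per well compared with pooled transfected vehicle control wells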
assay_context: HeLa MKP-3 transfected, phospho-Erk imaging KS statistic; at 10 µM; stronger effect = higher value; cells stimulated with TPA for 15 min
Active and inactive are the calls of the source.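 How the source made its calls: active means compounds giving at least 50% inhibition in the cell-based MKP-3 phosphatase rescue imaging test; inactive means the rest.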
readout_label: inhibition

[[record]]
compound = "Cc1cc(C)nc(NC2=NCC(=O)N2c2ccc(Cl)cc2)n1"
readout_label = "inhibition"
assay_result = "13.9% (inactive)"

[[record]]
compound = "CCCOc1ccc(C2NC(=O)NC2=O)cc1 (centres undefined)"
readout_label = "inhibition"
assay_result = "-0.159% (inactive)"

[[record]]
compound = "O=C(NC1CCS(=O)(=O)C1)N1CCCCC1 (centres undefined)"
readout_label = "inhibition"
assay_result = "1.6e-07% (inactive)"

[[record]]
compound = "C[N+]12CCC(CC1)C(OC(=O)C(O)(c1ccccc1)c1ccccc1)C2 (centres undefined)"
readout_label = "inhibition"
assay_result = "3.45% (inactive)"

[[record]]
compound = "O=[N+]([O-])c1cccc2cn[nH]c12"
readout_label = "inhibition"
assay_result = "3.45% (inactive)"

[[record]]
compound = "Cc1cc(=O)oc2cc(OCCSCCN3CCOCC3)ccc12"
readout_label = "inhibition"
assay_result = "15.1% (inactive)"

[[record]]
compound = "COC(=O)c1cc(Br)c(=O)n(CCc2ccc(F)cc2)c1"
readout_label = "inhibition"
assay_result = "1.9e-07% (inactive)"

[[record]]
compound = "C=C1c2cc(OC)ccc2NC(=O)N1CC"
readout_label = "inhibition"
assay_result = "-4.7% (inactive)"

[[record]]
compound = "COc1ccc(CCNC2CC(C)N(C)CC2C)cc1OC (centres undefined)"
readout_label = "inhibition"
assay_result = "-0.608% (inactive)"

[[record]]
compound = "O/N=C/c1ccc(OCC(O)COc2ccc(/C=N/O)cc2)cc1"
readout_label = "inhibition"
assay_result = "-8.59% (inactive)"

[[record]]
compound = "CCCOc1cccc(-c2nnc(N)s2)c1"
readout_label = "inhibition"
assay_result = "-11.5% (inactive)"

[[record]]
compound = "CC[C@H](C)C(=O)O[C@H]1C[C@@H](C)C=C2C=C[C@H](C)[C@H](CC[C@@H]3C[C@@H](O)CC(=O)O3)[C@H]21"
readout_label = "inhibition"
assay_result = "21.2% (inactive)"

[[record]]
compound = "Oc1ccc2ccccc2c1/C=N/n1cnnc1"
readout_label = "inhibition"
assay_result = "-2.91% (inactive)"

[[record]]
compound = "CCOc1nc(SCCOc2ccc(C)cc2)nc(N(C)C)n1"
readout_label = "inhibition"
assay_result = "22.8% (inactive)"

[[record]]
compound = "CCOC(=O)c1cc2cc(OC)ccc2[nH]1"
readout_label = "inhibition"
assay_result = "5.57% (inactive)"

[[record]]
compound = "N#CCCSc1nc(N2CCOCC2)c2c(c1C#N)CCCC2"
readout_label = "inhibition"
assay_result = "5.65% (inactive)"

[[record]]
compound = "CN(C)CCCN1c2ccccc2CCc2ccc(Cl)cc21"
readout_label = "inhibition"
assay_result = "7.39% (inactive)"

[[record]]
compound = "CN1CCN(CCCN2c3ccccc3Sc3ccc(Cl)cc32)CC1"
readout_label = "inhibition"
assay_result = "30.1% (inactive)"

[[record]]
compound = "c1ccc(OCc2nn3c(-c4ccco4)nnc3s2)cc1"
readout_label = "inhibition"
assay_result = "11.9% (inactive)"

[[record]]
compound = "O=C(CCCN1C(=O)c2ccccc2C1=O)N1CCC(c2ccccc2)C1 (centres undefined)"
readout_label = "inhibition"
assay_result = "-3.5% (inactive)"

[[record]]
compound = "CCCOc1ccc(/C(O)=C2/C(=O)C(=O)N(CCN3CCOCC3)C2c2ccccc2)cc1 (centres undefined)"
readout_label = "inhibition"
assay_result = "-0.159% (inactive)"

[[record]]
compound = "CC(C)N=c1cc2n(-c3ccc(Cl)cc3)c3ccccc3nc-2cc1Nc1ccc(Cl)cc1"
readout_label = "inhibition"
assay_result = "-0.493% (inactive)"

[[record]]
compound = "COc1cccc(OC)c1C(=O)N1CCN(S(=O)(=O)c2ccc(C)cc2)CC1"
readout_label = "inhibition"
assay_result = "5.57% (inactive)"

[[record]]
compound = "CC1CC(C(F)(F)F)n2ncnc2N1 (centres undefined)"
readout_label = "inhibition"
assay_result = "13.2% (inactive)"

